# measurement target: human α2AR (Homo sapiens)
# Sequence (P08913 whole entry): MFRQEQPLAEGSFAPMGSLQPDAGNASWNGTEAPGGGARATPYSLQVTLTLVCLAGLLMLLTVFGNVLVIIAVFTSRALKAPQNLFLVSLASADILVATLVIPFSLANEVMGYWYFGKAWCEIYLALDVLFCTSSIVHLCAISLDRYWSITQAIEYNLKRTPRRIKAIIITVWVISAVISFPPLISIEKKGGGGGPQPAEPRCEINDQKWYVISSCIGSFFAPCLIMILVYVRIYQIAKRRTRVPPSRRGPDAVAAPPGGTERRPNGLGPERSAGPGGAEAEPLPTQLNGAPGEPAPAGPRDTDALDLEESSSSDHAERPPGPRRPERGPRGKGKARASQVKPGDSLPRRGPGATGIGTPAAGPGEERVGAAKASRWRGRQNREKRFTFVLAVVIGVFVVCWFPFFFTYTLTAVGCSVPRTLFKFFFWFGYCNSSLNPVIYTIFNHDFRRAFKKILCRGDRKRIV
# assay protocol: [3H]RX821002 saturation binding in HEK-293T cells transfected with human α2AR
# experimental setup: read-out: KDA1, n=3
measured metric: Kd (nM)
Value expressed in nM; do not type the unit.

In: Checklist item: Kd tested on human α2AR (Homo sapiens), entry COC1(C2=NCCN2)COc2ccccc2O1 (stereo not shown) [[^3H]RX821002] , value?
Out: 0.62

----------
# measurement target: UniProtKB P21917
# Sequence (P21917 1-419): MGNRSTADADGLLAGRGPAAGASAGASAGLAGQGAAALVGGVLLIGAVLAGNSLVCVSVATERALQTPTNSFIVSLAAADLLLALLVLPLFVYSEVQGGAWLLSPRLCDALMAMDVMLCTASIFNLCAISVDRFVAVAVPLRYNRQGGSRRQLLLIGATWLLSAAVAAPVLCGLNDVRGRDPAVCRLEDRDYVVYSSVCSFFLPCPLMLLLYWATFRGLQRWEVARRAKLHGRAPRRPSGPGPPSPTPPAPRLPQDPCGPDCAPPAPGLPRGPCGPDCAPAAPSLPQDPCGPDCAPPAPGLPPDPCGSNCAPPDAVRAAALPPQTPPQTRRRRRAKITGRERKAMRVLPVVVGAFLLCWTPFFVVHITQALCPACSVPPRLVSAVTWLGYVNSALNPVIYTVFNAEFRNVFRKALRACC
# Format: binding
# experimental setup: read-out: KDB1; vs [3H]YM-09151-2, HEK-293T co-expressing α2AR and D4.4R, n=3
measured metric: Kd (nM)
Value expressed in nM; do not type the unit.

In: Any idea what Kd was measured for Cc1cccc(NC(=O)CN2CCC(c3ccccn3)CC2)c1.Cl.Cl [A-412997, A-412997 dihydrochloride] ?
Out: 1.1
